Target: T1, rat calcitonin receptor (rat, UniProt P32214 25-516)
T1 construct: whole, on cells; Membranes prepared from transiently transfected BHK tk'ts 13 cells; also called rCTR; rat calcitonin (a) receptor
T1 sequence (looked up): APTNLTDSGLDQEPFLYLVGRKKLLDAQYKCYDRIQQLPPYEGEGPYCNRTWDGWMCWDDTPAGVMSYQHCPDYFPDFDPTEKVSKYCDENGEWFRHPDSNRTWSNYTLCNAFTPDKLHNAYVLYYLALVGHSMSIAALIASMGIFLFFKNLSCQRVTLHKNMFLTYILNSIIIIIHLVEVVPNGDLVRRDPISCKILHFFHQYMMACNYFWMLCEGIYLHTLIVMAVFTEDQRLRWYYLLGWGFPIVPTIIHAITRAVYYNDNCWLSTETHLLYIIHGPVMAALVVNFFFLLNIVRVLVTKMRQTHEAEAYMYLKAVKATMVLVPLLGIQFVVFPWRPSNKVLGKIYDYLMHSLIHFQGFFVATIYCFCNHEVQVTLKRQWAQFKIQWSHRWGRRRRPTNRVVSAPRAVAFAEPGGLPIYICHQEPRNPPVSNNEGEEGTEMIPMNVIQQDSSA
Experiment: SPA competition vs 125I-calcitonin, membranes (Assay VIII)
Numbered stars: 1 amine (or outer) side, 2 acyl side, 3 side chain; on linkers, the order of the positions; unused ones are H or OH. Bridge positions count the residues as written; N and C are the ends. Side chains are listed from the residue outwards. Ends that are not written are not given here. * marks the point of attachment. C20 diacid = O=C(O)CCCCCCCCCCCCCCCCCCC(=O)*; γGlu = O=C(O)[C@H](CCC(=O)[*:2])N[*:1]
measured.quantity: IC50 (nM)

Observe how each entry below is paired with its result.
{C20 diacid-γGlu}-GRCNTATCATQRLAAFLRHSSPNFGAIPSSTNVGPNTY-NH2 (disulfide 3-8)	56.3
K([γGlu-γGlu-C20 diacid])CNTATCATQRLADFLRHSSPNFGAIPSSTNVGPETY-NH2 (disulfide 2-7)	31.9
K([γGlu-γGlu-C20 diacid])CNTATCATQRLAEFLRHSSPNFGAIPSSTNVGPETY-NH2 (disulfide 2-7 (inferred))	16.1
KCNTATCATQRLADFLRHSSPNFGAIPSSTNVGSRTY-NH2 (disulfide 2-7, Not acylated) [[Asp14,Arg17,Pro21,Pro27,Arg35]-h-amylin]	30.9

a. K([γGlu-γGlu-C20 diacid])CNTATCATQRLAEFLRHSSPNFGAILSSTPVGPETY-NH2 (disulfide 2-7)
b. K([γGlu-γGlu-C20 diacid])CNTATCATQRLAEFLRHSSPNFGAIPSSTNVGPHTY-NH2 (disulfide 2-7 (inferred))
c. K([γGlu-γGlu-C20 diacid])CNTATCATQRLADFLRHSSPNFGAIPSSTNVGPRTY-NH2 (disulfide 2-7, also called compound 130)
d. K([γGlu-C20 diacid])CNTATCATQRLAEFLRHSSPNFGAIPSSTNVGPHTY-NH2 (disulfide 2-7)
Please put the entries in order of rising IC50. Note for the reader: the ranking is given by listing the labels in the order requested.
d, b, a, c
